In this section we review reported IC30 values for a set of compounds.
- System: MCF7
- ASSAY_COMMENT: Inhibitory activity against proliferation of MCF-7 cells in presence of 10e-6 M concentration of [3H]- estradiol (E2)
- Format: functional
- RUN_PARAMETERS: Homo sapiens
PROPERTY_MEASURED: IC30 (µM)

CC(C)Oc1ccc(/C(=C(/C#N)c2ccccc2)c2ccc(O)cc2)cc1 :: 5.2
CCN(CC)CCOc1ccc(C(=C(C#N)c2ccccc2)c2ccc(OCCN(CC)CC)cc2)cc1 :: 3.1
CN(C)Cc1cc(/C(=C(\C#N)c2ccccc2)c2ccc(O)cc2)ccc1O :: 10

* * *

- TARGET_OR_SYSTEM: Anti-estrogen binding site (AEBS) (Homo sapiens) (UniProt Q15125+Q9UBM7)
- ASSAY_COMMENT: Relative binding affinity for antiestrogen binding site (AEBS) of calf uterus 2 hr incubation at 0C
- Format: tissue-based
- RUN_PARAMETERS: Bos taurus
Catalogue of RBA readings, one per entry.
PROPERTY_MEASURED: RBA

CCN(CC)CCOc1ccc(/C(=C(/C#N)c2ccccc2)c2ccc(O)cc2)cc1 :: 27
CCN(CC)CCOc1ccc(C(C#N)=C(c2ccccc2)c2ccccc2)cc1 :: 41
CC/C(=C(/c1ccc(O)cc1)c1ccc(OCCN(C)C)cc1)c1ccccc1 :: 20
CCN(CC)CCOc1ccc(C(=C(C#N)c2ccccc2)c2ccc(OCCN(CC)CC)cc2)cc1 :: 3.6

* * *

Some molecules, each annotated with its measured RBA2.
- TARGET_OR_SYSTEM: Estrogen receptor (Bos taurus) (UniProt Q9XSB5+P49884)
- RUN_PARAMETERS: Uterus; Cytosol
- Description: Relative binding affinity against estrogen receptor in calf uterus cytosol using [3H]E2 as radioligand, incubated at 5 hours at 25 degree Centigrade.
PROPERTY_MEASURED: RBA2

CN(C)c1ccc(C(=C(C#N)c2ccccc2)c2ccc(N(C)C)cc2)cc1 :: 0.04
CN(C)Cc1cc(C(=C(C#N)c2ccccc2)c2ccc(O)c(CN(C)C)c2)ccc1O :: 0.01
N#CC(=C(c1ccc(O)cc1)c1ccc(O)cc1)c1ccccc1 :: 62
N#C/C(=C(/c1ccccc1)c1ccc(O)cc1)c1ccc(O)cc1 :: 74
CN(C)Cc1cc(/C(=C(\C#N)c2ccccc2)c2ccc(O)cc2)ccc1O :: 0.21
Cc1ccc(/C(=C(/C#N)c2ccc(O)cc2)c2ccc(O)cc2)cc1 :: 78
N#C/C(=C(\c1ccccc1)c1ccc(O)cc1)c1ccc(O)cc1 :: 6.1
